protocol.description: Minimal inhibitory concentration against Moraxella catarrhalis 25240
Type: functional
Kindly state MIC for each of the entries shown.
Form entry: value (µg/mL) — number only.

// field: MIC; key: C#CCO/N=C(\C(=O)NC1C(=O)N2C(C(=O)O)=C(Sc3cc(N)nc(N)n3)CSC12)c1csc(N)n1 (centres undefined) ; value = 0.016

The compound listed as CO/N=C(\C(=O)NC1C(=O)N2C(C(=O)O)=C(SCSc3cc(N)nc(N)n3)CSC12)c1csc(N)n1 (centres undefined) shows MIC equal to 0.5

* * *

Tested on: Staphylococcus aureus
protocol.description: Minimal inhibitory concentration against methicillin resistant Staphylococcus aureus 77
Format: functional
Would you mind telling me the reported MIC of each entry?
Give the number; µg/mL is assumed, so skip it.

So, CO/N=C(\C(=O)NC1C(=O)N2C(C(=O)O)=C(SCSc3cc(N)nc(N)n3)CSC12)c1csc(N)n1 (centres undefined) ? Its MIC was 4

# MIC (compound: Nc1cc(N)nc(SCSC2=C(C(=O)O)N3C(=O)C(NC(=O)/C(=N\O)c4nc(N)sc4Cl)C3SC2)n1 (centres undefined) ) is 4

Sure, the documented MIC for CCO/N=C(\C(=O)NC1C(=O)N2C(C(=O)O)=C(Sc3cc(N)nc(N)n3)CSC12)c1nsc(N)n1 (centres undefined) is 4

For reference, reported MIC for Nc1nc(O)cc(SC2=C(C(=O)O)N3C(=O)C(NC(=O)/C(=N\O)c4csc(N)n4)C3SC2)n1 (centres undefined) stands at 4

The reported MIC of the compound CO/N=C(\C(=O)NC1C(=O)N2C(C(=O)O)=C(Sc3cc(N)nc(N)n3)CSC12)c1csc(N)n1 (centres undefined) was 4

The reported value for Nc1ccnc(SCSC2=C(C(=O)O)N3C(=O)C(NC(=O)/C(=N\O)c4nc(N)sc4Cl)C3SC2)n1 (centres undefined) in terms of MIC is 2

Just so you know, measured MIC for Nc1cc(SCSC2=C(C(=O)O)N3C(=O)C(NC(=O)/C(=N\O)c4nc(N)sc4Cl)C3SC2)nc(N)n1 (centres undefined) came out at 1

Recorded MIC (compound Nc1nc(O)cc(SC2=C(C(=O)O)N3C(=O)C(NC(=O)/C(=N\O)c4nc(N)sc4Cl)C3SC2)n1 (centres undefined) ): 2

Sample C#CCO/N=C(\C(=O)NC1C(=O)N2C(C(=O)O)=C(Sc3cc(N)nc(N)n3)CSC12)c1csc(N)n1 (centres undefined) ; MIC observed: 4

* * *

System: Staphylococcus aureus
protocol.description: Minimal inhibitory concentration against methicillin resistant Staphylococcus aureus 77
Assay type: functional
assay.endpoint: MIC (µg/mL)
Your answer is read as µg/mL, so omit the unit and give the number.

Short answer for Nc1cc(SC2=C(C(=O)O)N3C(=O)C(NC(=O)/C(=N\O)c4csc(N)n4)C3SC2)nc(N)n1 (stereo not drawn) : MIC was 2

GET /value?item= C=CC1=C(C(=O)O)N2C(=O)[C@@H](NC(=O)/C(=N\O)c3csc(N)n3)[C@H]2SC1 &field=MIC returns 4

Summary for this compound, Nc1nc(/C(=N/O)C(=O)NC2C(=O)N3C(C(=O)O)=C(SCSc4nc(O)nc(N)c4N)CSC23)c(Cl)s1 (stereo not drawn) : MIC is 4

The recorded MIC for Nc1cc(SCSC2=C(C(=O)O)N3C(=O)C(NC(=O)/C(=N\O)c4csc(N)n4)C3SC2)nc(N)n1 (stereo not drawn) is 1

The measured MIC associated with Nc1nc(O)cc(SCSC2=C(C(=O)O)N3C(=O)C(NC(=O)/C(=N\O)c4nc(N)sc4Cl)C3SC2)n1 (stereo not drawn) reads 1

The recorded MIC for Nc1cc(N)nc(SCSC2=C(C(=O)O)N3C(=O)C(NC(=O)/C(=N\O)c4csc(N)n4)C3SC2)n1 (stereo not drawn) is 1

So for CCO/N=C(\C(=O)NC1C(=O)N2C(C(=O)O)=C(Sc3cc(N)nc(N)n3)CSC12)c1csc(N)n1 (stereo not drawn) , the logged MIC turned out to be 4

Entry Nc1cc(SC2=C(C(=O)O)N3C(=O)C(NC(=O)/C(=N\O)c4nc(N)sc4Cl)C3SC2)nc(N)n1 (stereo not drawn) ; MIC = 2

* * *

protocol.description: Minimal inhibitory concentration against Moraxella catarrhalis 25240
Assay type: functional
Would you kindly list MIC for each of these compounds?
Reply numerically in µg/mL, unit not repeated.

Form field MIC, entry Nc1nc(/C(=N/O)C(=O)NC2C(=O)N3C(C(=O)O)=C(SCSc4nc(O)nc(N)c4N)CSC23)c(Cl)s1 (stereo not drawn) : 0.13

Form field MIC, entry Nc1ccnc(SCSC2=C(C(=O)O)N3C(=O)C(NC(=O)/C(=N\O)c4nc(N)sc4Cl)C3SC2)n1 (stereo not drawn) : 0.5

The value of MIC measured for the compound Nc1nc(O)cc(SCSC2=C(C(=O)O)N3C(=O)C(NC(=O)/C(=N\O)c4nc(N)sc4Cl)C3SC2)n1 (stereo not drawn) turned out to be 0.063

MIC reported for this compound C=CC1=C(C(=O)O)N2C(=O)[C@@H](NC(=O)/C(=N\O)c3csc(N)n3)[C@H]2SC1 : 0.5

Recorded result, Nc1cc(N)nc(SCSC2=C(C(=O)O)N3C(=O)C(NC(=O)/C(=N\O)c4nc(N)sc4Cl)C3SC2)n1 (stereo not drawn) , MIC: 0.13

The reported value for Nc1cc(SCSC2=C(C(=O)O)N3C(=O)C(NC(=O)/C(=N\O)c4csc(N)n4)C3SC2)nc(N)n1 (stereo not drawn) in terms of MIC is 2

* * *

Would you mind telling me the reported MIC of each entry?
protocol.description: Minimal inhibitory concentration against Moraxella catarrhalis 25240
Assay type: functional

Sure, the documented MIC for Nc1nc(O)cc(SC2=C(C(=O)O)N3C(=O)C(NC(=O)/C(=N\O)c4csc(N)n4)C3SC2)n1 (centres undefined) is < 0.008 µg/mL

For CO/N=C(\C(=O)NC1C(=O)N2C(C(=O)O)=C(Sc3cc(N)nc(N)n3)CSC12)c1csc(N)n1 (centres undefined) the compound record lists MIC as < 0.008 µg/mL

Query Nc1cc(N)nc(SCSC2=C(C(=O)O)N3C(=O)C(NC(=O)/C(=N\O)c4csc(N)n4)C3SC2)n1 (centres undefined) yields MIC of 1 µg/mL

Memo: Nc1cc(SCSC2=C(C(=O)O)N3C(=O)C(NC(=O)/C(=N\O)c4nc(N)sc4Cl)C3SC2)nc(N)n1 (centres undefined) , reported MIC: 0.13 µg/mL
